# Test system: C. neoformans MMX 0634 ATCC 90112
# assay_protocol: MIC assay (CLSI microdilution)
# Format: cell-based
# conditions_used: Cryptococcus neoformans, ATCC90112, RPMI plus 0.002% Tween-80; read-out: MIC
Numbered stars: 1 amine (or outer) side, 2 acyl side, 3 side chain; on linkers, the order of the positions; unused ones are H or OH. Square brackets hold non-standard residues; d marks the D form. Peptide text beside a SMILES is read from it. ξ: configuration not given here. X4 = CN1CCN(c2cc(-c3cccc(C[C@@H](C(=O)[*:2])N(C)[*:1])c3)ccn2)CC1; X12 = CN(C)c1cc(-c2cccc(C[C@@H](C(=O)[*:2])N(C)[*:1])c2)ccn1; X16 = CC(C)c1cc(-c2cccc(C[C@@H](C(=O)[*:2])N(C)[*:1])c2)ccn1; X14 = CN([C@@H](Cc1cccc(-c2ccc3ncccc3c2)c1)C(=O)[*:2])[*:1]; X17 = CN([C@@H](Cc1cccc(-c2cnc3ccccc3c2)c1)C(=O)[*:2])[*:1]; X22 = CN([C@@H](Cc1cccc(-c2cncc3ccccc23)c1)C(=O)[*:2])[*:1]; X32 = CN([C@@H](Cc1cccc(-c2cccc(F)c2)c1)C(=O)[*:2])[*:1]; Hmp(2R,3S) = CC[C@H](C)[C@@H](O)C(=O)O; NMeVal(β-OH) = CN[C@H](C(=O)O)C(C)(C)O; X6 = CCC(C)[C@@H](O[*:1])C(=O)[*:2]; Ile(3ξ) = CCC(C)[C@H](N)C(=O)O; NMeV = CN[C@H](C(=O)O)C(C)C
measured_parameter: MIC (µg/mL)
All answers are understood in µg/mL, so give the number only.

Below, 6 compounds whose answers are already recorded.
CC[C@H](C)[C@@H]1NC(=O)[C@@H]2CCCN2C(=O)[C@H](Cc2cccc(-c3cccc(F)c3)c2)N(C)C(=O)[C@H](Cc2ccccc2)NC(=O)[C@H](C(C)C)N(C)C(=O)[C@@H]([C@@H](C)CC)OC(=O)[C@H](C(C)(C)O)N(C)C(=O)[C@H](CC(C)C)NC(=O)[C@H](C(C)C)N(C)C1=O [Compound 7] (cyclo(F[X32]PI[NMeV]L[NMeVal(β-OH)][Hmp(2R,3S)][NMeV])) ... 0.12
CC[C@H](C)[C@@H]1NC(=O)[C@@H]2CCCN2C(=O)[C@H](Cc2cccc(-c3ccnc(N4CCN(C)CC4)c3)c2)N(C)C(=O)[C@H](Cc2ccccc2)NC(=O)[C@H](C(C)C)N(C)C(=O)[C@@H]([C@@H](C)CC)OC(=O)[C@H](C(C)(C)O)N(C)C(=O)[C@H](CC(C)C)NC(=O)[C@H](C(C)C)N(C)C1=O [Compound 15] (cyclo(F[X4]PI[NMeV]L[NMeVal(β-OH)][Hmp(2R,3S)][NMeV])) ... 0.06
CC[C@H](C)[C@@H]1NC(=O)[C@@H]2CCCN2C(=O)[C@H](Cc2cccc(-c3ccnc(C(C)C)c3)c2)N(C)C(=O)[C@H](Cc2ccccc2)NC(=O)[C@H](C(C)C)N(C)C(=O)[C@@H]([C@@H](C)CC)OC(=O)[C@H](C(C)(C)O)N(C)C(=O)[C@H](CC(C)C)NC(=O)[C@H](C(C)C)N(C)C1=O [Compound 16] (cyclo(F[X16]PI[NMeV]L[NMeVal(β-OH)][Hmp(2R,3S)][NMeV])) ... 0.12
CC[C@H](C)[C@@H]1NC(=O)[C@@H]2CCCN2C(=O)[C@H](Cc2cccc(-c3cnc4ccccc4c3)c2)N(C)C(=O)[C@H](Cc2ccccc2)NC(=O)[C@H](C(C)C)N(C)C(=O)[C@@H]([C@@H](C)CC)OC(=O)[C@H](C(C)(C)O)N(C)C(=O)[C@H](CC(C)C)NC(=O)[C@H](C(C)C)N(C)C1=O [Compound 27] (cyclo(F[X17]PI[NMeV]L[NMeVal(β-OH)][Hmp(2R,3S)][NMeV])) ... 0.12
CC[C@H](C)[C@@H]1NC(=O)[C@@H]2CCCN2C(=O)[C@H](Cc2cccc(-c3cncc4ccccc34)c2)N(C)C(=O)[C@H](Cc2ccccc2)NC(=O)[C@H](C(C)C)N(C)C(=O)[C@@H]([C@@H](C)CC)OC(=O)[C@H](C(C)(C)O)N(C)C(=O)[C@H](CC(C)C)NC(=O)[C@H](C(C)C)N(C)C1=O [Compound 29] (cyclo(F[X22]PI[NMeV]L[NMeVal(β-OH)][Hmp(2R,3S)][NMeV])) ... 0.06
CCC(C)[C@@H]1NC(=O)[C@@H]2CCCN2C(=O)[C@H](Cc2cccc(-c3ccc4ncccc4c3)c2)N(C)C(=O)[C@H](Cc2ccccc2)NC(=O)[C@H](C(C)C)N(C)C(=O)[C@@H](C(C)CC)OC(=O)[C@H](C(C)(C)O)N(C)C(=O)[C@H](CC(C)C)NC(=O)[C@H](C(C)C)N(C)C1=O (stereo partly drawn) [Compound 18] (cyclo(F[X14]P[Ile(3ξ)][NMeV]L[NMeVal(β-OH)][X6][NMeV])) ... 0.25

Form field: MIC recorded for CC[C@H](C)[C@@H]1NC(=O)[C@@H]2CCCN2C(=O)[C@H](Cc2cccc(-c3ccnc(N(C)C)c3)c2)N(C)C(=O)[C@H](Cc2ccccc2)NC(=O)[C@H](C(C)C)N(C)C(=O)[C@@H]([C@@H](C)CC)OC(=O)[C@H](C(C)(C)O)N(C)C(=O)[C@H](CC(C)C)NC(=O)[C@H](C(C)C)N(C)C1=O [Compound 22] (cyclo(F[X12]PI[NMeV]L[NMeVal(β-OH)][Hmp(2R,3S)][NMeV])) with C. neoformans MMX 0634 ATCC 90112 (enter value) 0.25

* * *

Below, each entry is listed alongside its reported MIC.
# System: A. niger MMX 0624 ATCC 16888
# assay_protocol: MIC/MEC assay (CLSI microdilution)
# Assay type: cell-based
# conditions_used: Aspergillus niger, ATCC16888, 48 h, RPMI plus 0.002% Tween-80, read-out: MIC
Numbered stars: 1 amine (or outer) side, 2 acyl side, 3 side chain; on linkers, the order of the positions; unused ones are H or OH. Square brackets hold non-standard residues; d marks the D form. Peptide text beside a SMILES is read from it. X8 = CC(=O)N1CCN(c2ccc(-c3cccc(C[C@@H](C(=O)[*:2])N(C)[*:1])c3)cn2)CC1; X1 = CC(C)N1CCN(c2ccc(-c3cccc(C[C@@H](C(=O)[*:2])N(C)[*:1])c3)cc2)CC1; X21 = CC1CCN(c2cc(-c3cccc(C[C@@H](C(=O)[*:2])N(C)[*:1])c3)ccn2)CC1; X3 = CN1CCN(c2ccc(-c3cccc(C[C@@H](C(=O)[*:2])N(C)[*:1])c3)cn2)CC1; X9 = CN1CCN(c2cccc(-c3cccc(C[C@@H](C(=O)[*:2])N(C)[*:1])c3)n2)CC1; X10 = CN([C@@H](Cc1cccc(-c2ccc(N3CCNCC3)nc2)c1)C(=O)[*:2])[*:1]; X31 = CN([C@@H](Cc1cccc(-c2cccc(C(F)(F)F)c2)c1)C(=O)[*:2])[*:1]; X16 = CC(C)c1cc(-c2cccc(C[C@@H](C(=O)[*:2])N(C)[*:1])c2)ccn1; X25 = CN([C@@H](Cc1cccc(-c2ccc3cccnc3c2)c1)C(=O)[*:2])[*:1]; Hmp(2R,3S) = CC[C@H](C)[C@@H](O)C(=O)O; NMeVal(β-OH) = CN[C@H](C(=O)O)C(C)(C)O; NMeV = CN[C@H](C(=O)O)C(C)C
All answers are understood in µg/mL, so give the number only.

CC[C@H](C)[C@@H]1NC(=O)[C@@H]2CCCN2C(=O)[C@H](Cc2cccc(-c3ccc4cccnc4c3)c2)N(C)C(=O)[C@H](Cc2ccccc2)NC(=O)[C@H](C(C)C)N(C)C(=O)[C@@H]([C@@H](C)CC)OC(=O)[C@H](C(C)(C)O)N(C)C(=O)[C@H](CC(C)C)NC(=O)[C@H](C(C)C)N(C)C1=O [Compound 10] (cyclo(F[X25]PI[NMeV]L[NMeVal(β-OH)][Hmp(2R,3S)][NMeV])) ... 0.06
CC[C@H](C)[C@@H]1NC(=O)[C@@H]2CCCN2C(=O)[C@H](Cc2cccc(-c3ccc(N4CCN(C)CC4)nc3)c2)N(C)C(=O)[C@H](Cc2ccccc2)NC(=O)[C@H](C(C)C)N(C)C(=O)[C@@H]([C@@H](C)CC)OC(=O)[C@H](C(C)(C)O)N(C)C(=O)[C@H](CC(C)C)NC(=O)[C@H](C(C)C)N(C)C1=O [Compound 20] (cyclo(F[X3]PI[NMeV]L[NMeVal(β-OH)][Hmp(2R,3S)][NMeV])) ... 0.015
CC[C@H](C)[C@@H]1NC(=O)[C@@H]2CCCN2C(=O)[C@H](Cc2cccc(-c3ccc(N4CCNCC4)nc3)c2)N(C)C(=O)[C@H](Cc2ccccc2)NC(=O)[C@H](C(C)C)N(C)C(=O)[C@@H]([C@@H](C)CC)OC(=O)[C@H](C(C)(C)O)N(C)C(=O)[C@H](CC(C)C)NC(=O)[C@H](C(C)C)N(C)C1=O [Compound 30] (cyclo(F[X10]PI[NMeV]L[NMeVal(β-OH)][Hmp(2R,3S)][NMeV])) ... 0.5
CC[C@H](C)[C@@H]1NC(=O)[C@@H]2CCCN2C(=O)[C@H](Cc2cccc(-c3ccc(N4CCN(C(C)=O)CC4)nc3)c2)N(C)C(=O)[C@H](Cc2ccccc2)NC(=O)[C@H](C(C)C)N(C)C(=O)[C@@H]([C@@H](C)CC)OC(=O)[C@H](C(C)(C)O)N(C)C(=O)[C@H](CC(C)C)NC(=O)[C@H](C(C)C)N(C)C1=O [Compound 32] (cyclo(F[X8]PI[NMeV]L[NMeVal(β-OH)][Hmp(2R,3S)][NMeV])) ... 1
CC[C@H](C)[C@@H]1NC(=O)[C@@H]2CCCN2C(=O)[C@H](Cc2cccc(-c3ccc(N4CCN(C(C)C)CC4)cc3)c2)N(C)C(=O)[C@H](Cc2ccccc2)NC(=O)[C@H](C(C)C)N(C)C(=O)[C@@H]([C@@H](C)CC)OC(=O)[C@H](C(C)(C)O)N(C)C(=O)[C@H](CC(C)C)NC(=O)[C@H](C(C)C)N(C)C1=O [Compound 25] (cyclo(F[X1]PI[NMeV]L[NMeVal(β-OH)][Hmp(2R,3S)][NMeV])) ... 0.015
CC[C@H](C)[C@@H]1NC(=O)[C@@H]2CCCN2C(=O)[C@H](Cc2cccc(-c3cccc(N4CCN(C)CC4)n3)c2)N(C)C(=O)[C@H](Cc2ccccc2)NC(=O)[C@H](C(C)C)N(C)C(=O)[C@@H]([C@@H](C)CC)OC(=O)[C@H](C(C)(C)O)N(C)C(=O)[C@H](CC(C)C)NC(=O)[C@H](C(C)C)N(C)C1=O [Compound 33] (cyclo(F[X9]PI[NMeV]L[NMeVal(β-OH)][Hmp(2R,3S)][NMeV])) ... 0.03

Form field: MIC recorded for CC[C@H](C)[C@@H]1NC(=O)[C@@H]2CCCN2C(=O)[C@H](Cc2cccc(-c3ccnc(N4CCC(C)CC4)c3)c2)N(C)C(=O)[C@H](Cc2ccccc2)NC(=O)[C@H](C(C)C)N(C)C(=O)[C@@H]([C@@H](C)CC)OC(=O)[C@H](C(C)(C)O)N(C)C(=O)[C@H](CC(C)C)NC(=O)[C@H](C(C)C)N(C)C1=O [Compound 23] (cyclo(F[X21]PI[NMeV]L[NMeVal(β-OH)][Hmp(2R,3S)][NMeV])) with A. niger MMX 0624 ATCC 16888 (enter value) 0.25

Param item: CC[C@H](C)[C@@H]1NC(=O)[C@@H]2CCCN2C(=O)[C@H](Cc2cccc(-c3ccnc(C(C)C)c3)c2)N(C)C(=O)[C@H](Cc2ccccc2)NC(=O)[C@H](C(C)C)N(C)C(=O)[C@@H]([C@@H](C)CC)OC(=O)[C@H](C(C)(C)O)N(C)C(=O)[C@H](CC(C)C)NC(=O)[C@H](C(C)C)N(C)C1=O [Compound 16] (cyclo(F[X16]PI[NMeV]L[NMeVal(β-OH)][Hmp(2R,3S)][NMeV])) 0.5

Param item: CC[C@H](C)[C@@H]1NC(=O)[C@@H]2CCCN2C(=O)[C@H](Cc2cccc(-c3cccc(C(F)(F)F)c3)c2)N(C)C(=O)[C@H](Cc2ccccc2)NC(=O)[C@H](C(C)C)N(C)C(=O)[C@@H]([C@@H](C)CC)OC(=O)[C@H](C(C)(C)O)N(C)C(=O)[C@H](CC(C)C)NC(=O)[C@H](C(C)C)N(C)C1=O [Compound 4] (cyclo(F[X31]PI[NMeV]L[NMeVal(β-OH)][Hmp(2R,3S)][NMeV])) 0.5
